# SYSTEM TESTED: Peptidyl-prolyl cis-trans isomerase NIMA-interacting 1 (Homo sapiens, UniProt Q13526)
# Sequence (Q13526 whole entry): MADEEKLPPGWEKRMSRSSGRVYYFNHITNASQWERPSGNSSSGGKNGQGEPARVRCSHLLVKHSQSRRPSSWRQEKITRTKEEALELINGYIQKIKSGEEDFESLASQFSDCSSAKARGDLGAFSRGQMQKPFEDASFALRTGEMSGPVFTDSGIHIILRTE
# EXPERIMENTAL PROTOCOL: Irreversible inhibition of Pin1 (unknown origin) using suc-Ala-Glu-Pro-Phe-pNA as substrate preincubated for 10 mins followed by substrate addition and measured for 10 mins by proteinase-coupled based spectrophotometric method
Consider the following compounds; for each one, report its Ki.
Respond with the bare value in µM.

q: What value of Ki has been reported for the following compound? O=C(/C=C/c1ccc2ccccc2c1)N[C@H](CCC(=O)N1CCOCC1)C(=O)O
a: 5.47

q: What value of Ki has been reported for the following compound? O=C(/C=C/c1ccc2ccccc2c1)N[C@@H](CCC(=O)N1CCOCC1)C(=O)O
a: 1.37
